# target_of_assay: human CD33 on primary human monocyte-derived dendritic cells (human, UniProt P20138 18-364)
# Sequence (P20138 18-364): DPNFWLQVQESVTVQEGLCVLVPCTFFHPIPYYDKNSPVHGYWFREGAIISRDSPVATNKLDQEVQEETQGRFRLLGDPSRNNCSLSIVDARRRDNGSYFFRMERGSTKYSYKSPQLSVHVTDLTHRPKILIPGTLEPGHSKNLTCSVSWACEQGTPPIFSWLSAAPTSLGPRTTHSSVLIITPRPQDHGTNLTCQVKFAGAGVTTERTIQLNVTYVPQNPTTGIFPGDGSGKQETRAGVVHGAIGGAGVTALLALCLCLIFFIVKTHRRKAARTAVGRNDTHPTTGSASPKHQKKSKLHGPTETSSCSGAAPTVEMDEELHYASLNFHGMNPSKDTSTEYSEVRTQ
# assay_details: cell-based or functional assay
assay_readout: Maximal Downregulation (% CD33 remaining) (%)
The figure you give is taken to be in %; do not add the unit.

Which Maximal Downregulation (% CD33 remaining) reading was recorded for the binder AB-14.2 (antibody, V domains shown) VH: QVQLVQSGAEVKKPGASVKVSCKASGATFTDYNYHWVRQAPGQGLEWIGFIYPSNGITGYAQKFQDRVTMTVDTSTSTVYMELSSLRSEDTAVYYCARSFVDYFDYWGQGTLVTVSS VL: DIQMTQSPSSLSASVGDRVTITCRASQDVSTSTYSYMHWYQQKPGKAPKLLIKYASNLESGVPSRFSGSGSGTDFTLTISSLQPEDFATYYCQHSWEIPLTFGQGTKLEIK ?
23.8
